Origin of measurements: patent US9062066B2

TESTED_ON: c-Src tyrosine kinase (Homo sapiens (Human), UniProt P12931)
Sequence (P12931 whole entry, looked up): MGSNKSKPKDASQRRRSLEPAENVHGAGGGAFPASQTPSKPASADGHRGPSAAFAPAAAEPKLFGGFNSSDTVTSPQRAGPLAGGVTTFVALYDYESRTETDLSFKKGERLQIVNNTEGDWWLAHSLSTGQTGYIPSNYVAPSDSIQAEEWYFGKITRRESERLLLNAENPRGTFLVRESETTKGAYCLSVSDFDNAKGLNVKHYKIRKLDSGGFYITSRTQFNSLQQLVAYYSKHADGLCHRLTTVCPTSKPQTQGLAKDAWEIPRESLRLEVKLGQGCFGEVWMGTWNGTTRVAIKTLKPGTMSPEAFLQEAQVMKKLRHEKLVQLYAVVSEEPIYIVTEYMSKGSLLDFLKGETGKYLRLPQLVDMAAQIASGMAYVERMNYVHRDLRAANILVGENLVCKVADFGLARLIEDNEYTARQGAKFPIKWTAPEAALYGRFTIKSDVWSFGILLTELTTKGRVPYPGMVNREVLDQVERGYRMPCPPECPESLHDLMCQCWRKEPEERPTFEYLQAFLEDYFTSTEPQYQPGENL
PROTOCOL: in vitro c-Src tyrosine kinase inhibition (32P-ATP, poly(D4Y)n substrate)
Type: biochemical
STATED_CONDITIONS: 1 uM compound; read-out: % inhibition against c-Src
Hi there, I'd appreciate the recorded inhibition at 1 µM for every entry that follows.

Record summary for CCOCc1ccc(-c2cc3ncnc(Nc4cccc(O)c4)c3s2)cc1 : reported inhibition at 1 µM = > 30%

Record summary for Oc1cccc(Nc2ncnc3cc(-c4cc(CN5CCOCC5)cs4)sc23)c1 : reported inhibition at 1 µM = > 50%

Record summary for Oc1cccc(Nc2ncnc3cc(-c4ccc(CN5CCOCC5)cc4)sc23)c1 : reported inhibition at 1 µM = > 80%

Record summary for CCNCc1ccc(-c2cc3ncnc(Nc4cccc(O)c4)c3s2)cc1 : reported inhibition at 1 µM = > 80%

Record summary for Oc1cccc(Nc2ccnc3cc(-c4ccc(CN5CCNCC5)cc4)sc23)c1 : reported inhibition at 1 µM = > 30%

Record summary for N#Cc1ccc(-c2cc3ncnc(Nc4cccc(O)c4)c3s2)cc1 : reported inhibition at 1 µM = > 70%

Record summary for CCNCc1cccc(-c2cc3ncnc(Nc4cccc(O)c4)c3s2)c1.Cl : reported inhibition at 1 µM = > 80%

Record summary for Oc1cccc(Nc2ccnc3cc(-c4ccc(CN5CCOCC5)cc4)sc23)c1 : reported inhibition at 1 µM = > 60%

Record summary for Oc1cccc(Nc2ncnc3cc(-c4ccsc4)sc23)c1 : reported inhibition at 1 µM = > 40%

Record summary for CN1CCN(Cc2csc(-c3cc4ncnc(Nc5cccc(O)c5)c4s3)c2)CC1 : reported inhibition at 1 µM = > 60%

Record summary for CO[C@@H]1C[C@@H](CO)N(C(=O)c2cc3nccc(Nc4ccc5c(c4)cc(C)n5C(=O)NC4CC4)c3s2)C1 [Control compound 3, reference compound] : reported inhibition at 1 µM = < 20%

Record summary for Oc1cccc(Nc2ncnc3cc(-c4ccc(CCN5CCCC5)cc4)sc23)c1 : reported inhibition at 1 µM = > 30%

Record summary for Oc1cccc(Nc2ncnc3cc(-c4cccc(CCN5CCNCC5)c4)sc23)c1 : reported inhibition at 1 µM = > 80%

Record summary for Oc1cccc(Nc2ccnc3cc(-c4cccc(CN5CCCC5)c4)sc23)c1 : reported inhibition at 1 µM = > 70%

Record summary for Oc1cccc(Nc2ncnc3cc(-c4ccc(OCCN5CCOCC5)cc4)sc23)c1 : reported inhibition at 1 µM = > 70%

Record summary for Cl.Oc1cccc(Nc2ncnc3cc(-c4cccc(CN5CCCCC5)c4)sc23)c1 : reported inhibition at 1 µM = > 80%

Record summary for COC[C@@H]1CCCN1C(=O)c1cc2nccc(Nc3ccc4c(c3)cc(C)n4C(=O)NC3CC3)c2s1 [Control compound 2, reference compound] : reported inhibition at 1 µM = < 20%

---

Test system: TNF-α synthesis in J744A.1 macrophages
PROTOCOL: inhibition of TNF-α synthesis in LPS-activated macrophages (ELISA)
Assay type: cell-based
STATED_CONDITIONS: Macrophage; 10 μM compound, 100 ng/ml LPS, 6 hours; read-out: Inhibition (%) of TNF-α synthesis
METRIC_NAME: inhibition at 10 µM
Number first, unit second.

Record summary for O=C(c1cccc(-c2cc3ncnc(Nc4cccc(O)c4)c3s2)c1)N1CCCC1 : reported inhibition at 10 µM = 83%

Record summary for COC[C@@H]1CCCN1C(=O)c1cc2nccc(Nc3ccc4c(c3)cc(C)n4C(=O)NC3CC3)c2s1 [Control compound 2, reference compound] : reported inhibition at 10 µM = 39%

Record summary for Oc1cccc(Nc2ncnc3cc(-c4ccc(CN5CCNCC5)cc4)sc23)c1 : reported inhibition at 10 µM = 59%

Record summary for CO[C@@H]1C[C@@H](CO)N(C(=O)c2cc3nccc(Nc4ccc5c(c4)cc(C)n5C(=O)NC4CC4)c3s2)C1 [Control compound 3, reference compound] : reported inhibition at 10 µM = 19%

Record summary for CN1CCN(Cc2cccc(-c3cc4ncnc(Nc5cccc(O)c5)c4s3)c2)CC1.Cl : reported inhibition at 10 µM = 91%

Record summary for O=C(Cc1ccc(-c2cc3ncnc(Nc4cccc(O)c4)c3s2)cc1)N1CCCC1 : reported inhibition at 10 µM = 57%

Record summary for Oc1cccc(Nc2ncnc3cc(-c4ccc(CN5CCOCC5)cc4)sc23)c1 : reported inhibition at 10 µM = 77%
